- Test system: Zymoseptoria tritici (the causal agent of wheat leaf blotch)
- TEST DETAILS: Test B: preventive spray on wheat seedlings, wheat leaf blotch, visual disease rating
- Assay type: in vivo
- STATED CONDITIONS: test suspension 250 ppm; wheat seedlings
Marks after values point to notes of the source that are not given here.
VALUE KIND: Test B disease control rating

Examples with answers:
{"COMPOUND": "CCCOC(=O)c1cnn(CCCc2ccc(-c3noc(C(F)(F)F)n3)cc2)c1", "Test B disease control rating": "80* %"}
{"COMPOUND": "COC(=O)c1ccc(Cn2cc(-c3noc(C(F)(F)F)n3)cn2)cc1", "Test B disease control rating": "0* %"}
{"COMPOUND": "CCNC(=O)c1coc(Cc2ccc(-c3noc(C(F)(F)F)n3)cc2)n1", "Test B disease control rating": "99* %"}
{"COMPOUND": "CC(C)NC(=O)c1coc(Cc2ccc(-c3noc(C(F)(F)F)n3)cc2)n1", "Test B disease control rating": "99* %"}

stdin: Request the reported Test B disease control rating associated with O=C(O)CON=Cc1cnn(Cc2ccc(-c3noc(C(F)(F)F)n3)cc2)c1
stdout: 46* %

stdin: Same again, this time with O=C1CCCN1Cc1ccc(-c2noc(C(F)(F)F)n2)cc1
stdout: 95* %

stdin: Can you check CCOC(=O)c1ccn(Cc2ccc(-c3noc(C(F)(F)F)n3)cc2)n1 next?
stdout: 0%

stdin: One more compound: N#CCNC(=O)c1cnn(COc2ccc(-c3noc(C(F)(F)F)n3)cc2)c1
stdout: 73* %

stdin: Queued: FC(F)(F)c1nc(-c2ccc(OCn3cncn3)cc2)no1
stdout: 78* %

stdin: Further, for CCCOC(=O)c1cnn(COc2ccc(-c3noc(C(F)(F)F)n3)cc2)c1 ?
stdout: 35* %

stdin: Next compound up: O=C(c1coc(Cc2ccc(-c3noc(C(F)(F)F)n3)cc2)n1)N1CCCC1
stdout: 99* %
